# System: SF-539 CNS
# procedure.details: NCI-60 one-dose screen, 48 h (100 = growth as untreated, 0 = no growth, -100 = all killed)
# study.conditions: 10 µM unless noted
Compounds without any hit were thinned out: in the full panel of roughly 83,000, 20% have a hit. Calls of active or inactive are those of the source. Rule for the calls: active = growth percent below 10; inactive = the rest.
experimental.readout: growth

Please review the entries below; each comes with its answer.
>>> observed_measurement("CCOc1ccc(/C=C\\C(=O)O)cc1")
"110% (inactive)"
>>> observed_measurement("O=[N+]([O-])c1ccc(N/N=C/C2CCCCCC2)c([N+](=O)[O-])c1")
"99.8% (inactive)"
>>> observed_measurement("NCCSSC/C=C\\CSSCCN")
"109% (inactive)"

// growth lookup, molecule = CCN(CC)C(=S)SCCO , result: 102% (inactive)

molecule CCNCc1ccccc1 , growth observed: 102% (inactive)

Kindly note the recorded growth for COc1ccc(CCO)cc1 , which is 101% (inactive)
